test system: TAAR1 (Mus musculus (Mouse), UniProt Q923Y8)
Sequence (Q923Y8 whole entry): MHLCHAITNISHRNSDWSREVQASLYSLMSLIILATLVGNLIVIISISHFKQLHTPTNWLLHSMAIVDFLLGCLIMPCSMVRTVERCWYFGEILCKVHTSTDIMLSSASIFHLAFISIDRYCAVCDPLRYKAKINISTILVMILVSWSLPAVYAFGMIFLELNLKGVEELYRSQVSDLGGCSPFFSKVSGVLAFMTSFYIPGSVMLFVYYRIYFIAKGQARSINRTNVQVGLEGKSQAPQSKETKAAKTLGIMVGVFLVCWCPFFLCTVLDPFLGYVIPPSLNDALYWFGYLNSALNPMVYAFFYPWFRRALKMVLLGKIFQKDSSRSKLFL
procedure text: Radioligand binding assay on TAAR1 (membranes of stably transfected HEK293 cells)
applied conditions: competition with [3H]-rac-2-(1,2,3,4-tetrahydro-1-naphthyl)-2-imidazoline, 4° C., 30 min
Mark Satisfied for Ki under 0.002 µM, Not satisfied if at or over.

Field: example entries. Status: answers known.
{"columns": ["molecule smiles", "class assignment"],
 "data": [
  ["CC(C)c1cccc(OCC[C@H]2COC(N)=N2)c1", "Satisfied"],
  ["CC[C@@H](C[C@H]1COC(N)=N1)Oc1ccc(F)c(Cl)c1", "Satisfied"],
  ["C[C@@H](C[C@H]1COC(N)=N1)Oc1ccc(Cl)cc1", "Not satisfied"]
]}

Given the entry `C[C@H](OC[C@H]1COC(N)=N1)c1ccc(F)cc1` , would its reported Ki be below 0.002 µM?
Not satisfied

Given the entry `CC[C@@H](C[C@H]1COC(N)=N1)Oc1ccc(Cl)cc1Cl` , would its reported Ki be below 0.002 µM?
Satisfied

Given the entry `NC1=N[C@@H](CCOc2cccc(Cl)c2)CO1` , would its reported Ki be below 0.002 µM?
Satisfied

Given the entry `CC(C)(CC[C@H]1COC(N)=N1)c1ccccc1` , would its reported Ki be below 0.002 µM?
Not satisfied

Given the entry `NC1=N[C@@H](CCOc2ccc(Cc3ccccc3)cc2)CO1` , would its reported Ki be below 0.002 µM?
Not satisfied

Given the entry `NC1=N[C@@H](CCC(F)(F)c2ccc(F)cc2)CO1` , would its reported Ki be below 0.002 µM?
Not satisfied

Given the entry `NC1=N[C@@H](CCOc2ccc(C(F)(F)F)cc2)CO1` , would its reported Ki be below 0.002 µM?
Not satisfied

###

test system: TAAR1 (Mus musculus (Mouse))
procedure text: Radioligand binding assay on TAAR1 (membranes of stably transfected HEK293 cells)
applied conditions: competition with [3H]-rac-2-(1,2,3,4-tetrahydro-1-naphthyl)-2-imidazoline, 4° C., 30 min
molecules and their reported Ki
The response must be a number in µM with no trailing unit.

{"columns": ["molecule", "test readout", "value reported"],
 "data": [
  ["NC1=N[C@@H](CCOc2cccc(Br)c2)CO1", "Ki", 0.0001],
  ["NC1=N[C@@H](CCC2(c3ccc(F)cc3F)CC2)CO1", "Ki", 0.0059],
  ["CC[C@@H](C[C@H]1COC(N)=N1)Oc1ccc2ncccc2c1", "Ki", 0.0063],
  ["C[C@@H](CC[C@H]1COC(N)=N1)c1ccc(F)cc1", "Ki", 0.0031],
  ["COC(=O)c1cccc(OCC[C@H]2COC(N)=N2)c1", "Ki", 0.008]
]}

Item CCC(CC[C@H]1COC(N)=N1)c1ccc(F)cc1 (some centres unmarked) : provide Ki
0.0026

Item `NC1=N[C@@H](CCOc2ccc(F)c(F)c2)CO1` : provide Ki
0.0012

Item `NC1=N[C@@H](CCC2(c3ccc(F)c(Cl)c3)CC2)CO1` : provide Ki
0.0006

Item `C[C@@H](C[C@H]1COC(N)=N1)Oc1ccc(Br)cc1` : provide Ki
0.0024

Item CC(CCc1ccccc1)[C@H]1COC(N)=N1 (some centres unmarked) : provide Ki
0.008

Item `CC[C@@H](C[C@H]1COC(N)=N1)Oc1ccc(F)cc1` : provide Ki
0.0032

Item `Cc1cccc(OCC[C@H]2COC(N)=N2)c1` : provide Ki
0.0007

Item `NC1=N[C@@H](CCC2(c3ccc(Br)cc3)CC2)CO1` : provide Ki
0.0005

Item `CC[C@@H](C[C@H]1COC(N)=N1)Oc1ccc(Br)cc1` : provide Ki
0.001

Item `CC[C@@H](C[C@H]1COC(N)=N1)Oc1cccc(OCc2ccccc2)c1` : provide Ki
0.0009

Item `CC(C)(CC[C@H]1COC(N)=N1)c1ccc(Cl)cc1` : provide Ki
0.0007

Item `C[C@H](C[C@H]1COC(N)=N1)Oc1ccc(Cl)c(Cl)c1` : provide Ki
0.0062

Item `C[Si](C)(CC[C@H]1COC(N)=N1)c1cccc(Cl)c1` : provide Ki
0.0055
